Test system: RPMI-8226
Test: NCI tumour cell line growth inhibition, 48 h
The source made the active and inactive calls. Cut-off read from the data, not from the text of the source: active = GI50 up to about 1.1 µM and inactive = higher.
Entry note: the call must match one of active, inactive

Example entries begin here.
[
  {
    "molecule": "O=C1Nc2ccccc2/C1=N/N=c1\\cccc[nH]1",
    "class.label": "inactive"
  },
  {
    "molecule": "O=[N+]([O-])c1cccc([N+](=O)[O-])c1S(=O)(=O)c1ccccc1",
    "class.label": "inactive"
  },
  {
    "molecule": "Cc1ccc(S[C@@H](C)[C@@](O)(C(N)=O)c2ccccc2)cc1",
    "class.label": "inactive"
  },
  {
    "molecule": "CC(=O)N(C(C)=O)n1c(Cc2ccc(Cl)cc2)n[nH]c1=O",
    "class.label": "inactive"
  },
  {
    "molecule": "Nc1ncnc2c1ncn2CC(O)C(=O)O (stereo not given)",
    "class.label": "inactive"
  }
]

Short answer needed: outcome of this test for C=CC1(C)CC(=O)C2(O)C(C)(O1)C(OC(C)=O)C(O)C1C(C)(C)CCC(O)C12C (stereo not given) ?
inactive

Short answer needed: outcome of this test for C=CC(=O)N1C/C(=C\c2ccccc2)C(=O)/C(=C/c2ccccc2)C1 ?
active

Short answer needed: outcome of this test for Cc1cc(C)n(CN(Cn2nc(C)cc2C)c2ccc(N(Cn3nc(C)cc3C)Cn3nc(C)cc3C)cc2)n1 ?
inactive

Short answer needed: outcome of this test for Cc1ccccc1-c1c(N)nc(N)nc1C(=O)Nc1nccs1 ?
inactive

Short answer needed: outcome of this test for N#CC[N+]1(Cc2ccccn2)CCCC1.O=S(=O)([O-])c1ccccc1 ?
inactive

###

Would you mind telling me the reported GI50 of each entry?
System: KM12
Assay: NCI tumour cell line growth inhibition, 48 h
The source made the active and inactive calls. No stated cut-off is given here; in the data, active = GI50 up to about 1.1 µM and inactive = higher.

Worked cases, GI50 given:
[
  {
    "record.smiles": "CCOC(=O)NC(Nc1ccc(OC(F)(F)F)cc1)(C(F)(F)F)C(F)(F)F",
    "readout.kind": "GI50",
    "value.reported": "> 100 µM (inactive)"
  },
  {
    "record.smiles": "C/C(=C/CNc1ncnc2c1ncn2CCC#N)CO",
    "readout.kind": "GI50",
    "value.reported": "> 100 µM (inactive)"
  },
  {
    "record.smiles": "N#CC[N+]1(Cc2ccccn2)CCCC1.O=S(=O)([O-])c1ccccc1",
    "readout.kind": "GI50",
    "value.reported": "> 100 µM (inactive)"
  },
  {
    "record.smiles": "c1ccc(OCc2nnc3n2N=C(c2ccccc2)CS3)cc1",
    "readout.kind": "GI50",
    "value.reported": "> 100 µM (inactive)"
  },
  {
    "record.smiles": "Oc1cc(O)cc(/C=C/c2ccc(O)c(O)c2)c1",
    "readout.kind": "GI50",
    "value.reported": "3.52 µM (inactive)"
  }
]

Under KM12, report GI50 for CCCCc1ccc(-n2sc3ncc(-c4ccccc4)cc3c2=O)cc1
> 100 µM (inactive)

###

Test system: ACHN
Test: NCI tumour cell line growth inhibition, 48 h
Calls of active or inactive are those of the source. No stated cut-off is given here; in the data, active = GI50 up to about 1.1 µM and inactive = higher.
Entry note: the call must match one of active, inactive

Example entries begin here.
[
  {
    "molecule": "O=[N+]([O-])c1cccc(C2N3CCCCC3[C@@H]3c4[nH]c5ccccc5c4CCN23)c1 (stereo partly drawn)",
    "class.label": "inactive"
  },
  {
    "molecule": "CC(C)(C)OC(=O)Nc1nnc(S(N)(=O)=O)s1",
    "class.label": "inactive"
  },
  {
    "molecule": "Nc1ccccc1.O=P(O)(OP(=O)(O)c1ccccc1)c1ccccc1",
    "class.label": "inactive"
  },
  {
    "molecule": "CCN(CC)CCCn1cnc2ncccc2c1=O",
    "class.label": "inactive"
  },
  {
    "molecule": "COC(=O)CCC1(O)C=CC(=O)C=C1",
    "class.label": "inactive"
  }
]

Short answer needed: outcome of this test for CC(C)(C)c1cc(C(=O)O)c2c(c1)C(=O)OC2(c1ccccc1)c1ccccc1C(=O)O (stereo not drawn) ?
inactive

Short answer needed: outcome of this test for O=C(CC(C(=O)c1cccs1)c1ccsc1)c1ccsc1 (stereo not drawn) ?
inactive

Short answer needed: outcome of this test for Cc1ccc(S[C@@H](C)[C@@](O)(C(N)=O)c2ccccc2)cc1 ?
inactive

Short answer needed: outcome of this test for Nc1nc(Cl)c(N)c(NCC2(CO)CC(O)C2)n1 (stereo not drawn) ?
inactive

Short answer needed: outcome of this test for O=C1CCC(=O)C(C(=O)CCC(=O)Nc2ccc(Cl)cc2)C1 (stereo not drawn) ?
inactive

Short answer needed: outcome of this test for N=C(N)C1CN(CC=O)C(=O)NC1=O (stereo not drawn) ?
inactive

Short answer needed: outcome of this test for O=c1c2ncn(C3CCCCO3)c2n(-c2ccccc2)c(=S)n1-c1ccccc1 (stereo not drawn) ?
inactive

Short answer needed: outcome of this test for COc1ccc(Oc2ccccc2N)cc1 ?
inactive

Short answer needed: outcome of this test for CCOc1ccccc1/N=N/c1c(-c2ccccc2)nn(C(=O)CC(=O)Nc2cccc(C)c2)c1-c1ccccc1 ?
inactive

Short answer needed: outcome of this test for O=C1CSC(c2cccc([N+](=O)[O-])c2)N1c1ccc(-n2c(-c3ccccc3)nc3ccccc3c2=O)cc1 (stereo not drawn) ?
inactive

Short answer needed: outcome of this test for CCOC(=O)C1Cc2ccc(C)cc2C1=O (stereo not drawn) ?
inactive
